study_target: c-Src (Homo sapiens, UniProt P12931)
Construct: purchased Invitrogen/Life Technologies
Sequence (P12931 whole entry): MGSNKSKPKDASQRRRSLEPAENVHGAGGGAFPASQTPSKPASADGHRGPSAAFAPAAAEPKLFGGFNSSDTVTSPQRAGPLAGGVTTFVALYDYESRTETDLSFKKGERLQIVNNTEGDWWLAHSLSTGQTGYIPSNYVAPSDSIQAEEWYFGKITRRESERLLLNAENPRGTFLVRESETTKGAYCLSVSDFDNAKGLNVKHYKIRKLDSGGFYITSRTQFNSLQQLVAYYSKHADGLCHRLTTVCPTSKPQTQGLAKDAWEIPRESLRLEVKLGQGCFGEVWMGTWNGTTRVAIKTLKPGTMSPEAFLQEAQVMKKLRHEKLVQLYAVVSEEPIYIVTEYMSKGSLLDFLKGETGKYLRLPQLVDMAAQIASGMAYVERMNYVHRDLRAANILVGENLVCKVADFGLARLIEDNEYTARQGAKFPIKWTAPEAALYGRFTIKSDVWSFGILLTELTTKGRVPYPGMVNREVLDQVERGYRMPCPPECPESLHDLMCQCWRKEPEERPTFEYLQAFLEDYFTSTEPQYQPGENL
test_summary: Z`-LYTE kinase profiling, c-Src
Assay type: biochemical
Listed here: items and their measured IC50.
Give the number; µM is assumed, so skip it.

These recorded examples may help you get a feel for the data.
compound="FC(F)(F)c1ccc(-c2cc(OCCCn3ccnc3)c3cc4c(cc3n2)OCO4)cc1 [12c]" study_target="c-Src (Homo sapiens, UniProt P12931)" recorded_metric=IC50 measured=0.119
compound="Clc1ccc(-c2cc(OCCCN3CCOCC3)c3cc(Br)ccc3n2)cc1 [16b]" study_target="c-Src (Homo sapiens, UniProt P12931)" recorded_metric=IC50 measured=1.32
compound="COc1ccc(-c2ccc3nc(-c4ccc(Cl)cc4)cc(OCCCn4ccnc4)c3c2)cc1 [20a]" study_target="c-Src (Homo sapiens, UniProt P12931)" recorded_metric=IC50 measured=2.9
compound="Clc1ccc(-c2cc(OCCCN3CCOCC3)c3cc4c(cc3n2)OCO4)cc1 [12b]" study_target="c-Src (Homo sapiens, UniProt P12931)" recorded_metric=IC50 measured=0.0423
compound="COc1cc2nc(-c3ccc(C(F)(F)F)cc3)cc(OCCCn3ccnc3)c2cc1OC [6j]" study_target="c-Src (Homo sapiens, UniProt P12931)" recorded_metric=IC50 measured=0.186
compound="COc1cc2nc(-c3ccc(C)cc3)cc(OCCCNCC3CCCO3)c2cc1OC (stereo not drawn) [6n]" study_target="c-Src (Homo sapiens, UniProt P12931)" recorded_metric=IC50 measured=0.0827
compound="Fc1ccc(-c2cc(OCCCn3ccnc3)c3cc(Br)ccc3n2)cc1 [16c]" study_target="c-Src (Homo sapiens, UniProt P12931)" recorded_metric=IC50 measured=1.73
compound="Clc1ccc(-c2cc(OCCCn3ccnc3)c3cc(Br)ccc3n2)cc1 [16a]" study_target="c-Src (Homo sapiens, UniProt P12931)" recorded_metric=IC50 measured=1.35

The compound listed as COc1ccc(-c2ccc3nc(-c4ccc(Cl)cc4)cc(OCCCN4CCOCC4)c3c2)cc1 [20b] shows IC50 equal to 4.21

The compound listed as FC(F)(F)c1ccc(-c2cc(OCCCN3CCOCC3)c3cc4c(cc3n2)OCO4)cc1 [12d] shows IC50 equal to 1.45

The compound listed as CN1CCN(CCCOc2cc(-c3ccc(C(F)(F)F)cc3)nc3ccccc23)CC1 [10a] shows IC50 equal to 1.03

The compound listed as COc1ccc(-c2ccc3nc(-c4ccc(F)cc4)cc(OCCCN4CCOCC4)c3c2)cc1 [20d] shows IC50 equal to 0.251
